Values from PubChem BioAssay (NCI)

System: A498 renal
Test: NCI tumour cell line growth inhibition, 48 h; in the data active means GI50 below about 0.43 µM; inactive means the rest
Pick one: 1 = active, -1 = inactive

# example entries with known answers
- Molecule: "COC(=O)C1=C(OC(=O)c2ccc(Cl)cc2)C(C(=O)OC)[C@@]2(O)[C@@H](C(=O)OC)C(c3ccccc3C(F)(F)F)C[C@@H]1[C@@H]2C(=O)OC (stereo partly specified)"
  Cat: -1
- Molecule: "CC1(C)N=C(N)N=C(N)N1c1ccc(CCc2ccccc2)c(Cl)c1"
  Cat: -1
- Molecule: "CC[O-].CC[O-].O=C1C(=C([O-])c2ccccc2)C(=O)c2ccccc21.O=C1C(=C([O-])c2ccccc2)C(=O)c2ccccc21.[Ti+4]"
  Cat: -1
- Molecule: "NS(=O)(=O)c1ccc(N2Cc3cc(Cl)ccc3OC3=C2C(=O)N(CC2CCCCC2)C3=O)cc1"
  Cat: -1
- Molecule: "CCN(CCCCCCCCCCN1CC(=O)N(CCCCCCCCCCN(CC)Cc2ccccc2OC)CC1=O)Cc1ccccc1OC"
  Cat: -1
- Molecule: "Cn1cc(C2=C(c3cn(C)c4ccc(N)cc34)C(=O)NC2=O)c2ccccc21"
  Cat: -1
- Molecule: "COc1cc(-c2csc(NC(=O)c3cc(C(F)(F)F)cc(C(F)(F)F)c3)n2)cc(OC)c1OC"
  Cat: -1
- Molecule: "COc1ccc(Cl)cc1Nc1nc(C(F)(F)F)ccc1C(=O)NN"
  Cat: -1

Exercise: # lookup: test call for CCN(c1ccc(CO)c(Cl)c1)C(C)c1ccc(F)cc1 (stereo unspecified)
Key: 1

Exercise: # lookup: test call for O=C(Nc1ccc(OC(F)(F)F)cc1)c1sccc1NCc1ccnc2ccccc12
Key: -1

Exercise: # lookup: test call for Clc1ccc(COC(Cn2ccnc2)c2ccc(Cl)cc2Cl)cc1 (stereo unspecified)
Key: -1
